- Tested on: 616215-338-R-J1-PDC complex spheroid growth, % test/control
- protocol summary: Anticancer human tumor 616215-338-R-J1-PDC patient-derived colon adenocarcinoma cell line growth inhibition [Asc]
- reported conditions: second compound 1 µM; first compound 0.00316 µM; stronger effect = lower value
Values of viability, T/C strictly less than 70% map to Criterion met, and values of at least 70% map to Criterion not met.

Reference set, count: 3
Cn1ncnc1[C@H]1c2n[nH]c(=O)c3cc(F)cc(c23)N[C@@H]1c1ccc(F)cc1 + Cc1c(S(C)(=O)=O)c(-c2cc(F)cc(N3CCN(c4ccc(NS(=O)(=O)c5ccc(NC(CCN6CCC(C(=O)OCCCP(=O)(O)O)CC6)CSc6ccccc6)c(S(=O)(=O)C(F)(F)F)c5)cc4)CC3)c2)c(-c2ccc(Cl)cc2)n1C(C)C	Criterion met
NC1CCC(NC2CC2c2ccccc2)CC1 (stereo not drawn) + Cc1c(S(C)(=O)=O)c(-c2cc(F)cc(N3CCN(c4ccc(NS(=O)(=O)c5ccc(NC(CCN6CCC(C(=O)OCCCP(=O)(O)O)CC6)CSc6ccccc6)c(S(=O)(=O)C(F)(F)F)c5)cc4)CC3)c2)c(-c2ccc(Cl)cc2)n1C(C)C	Criterion met
COc1c(OCCCN2CCOCC2)ccc2c3n(c(=NC(=O)c4cnc(N)nc4)nc12)CCN3 + CNC(C)C(=O)NC1CN(S(=O)(=O)c2cccc(S(=O)(=O)N3CCC4CCC(C(=O)NC(c5ccccc5)c5ccccc5)N4C(=O)C(NC(=O)C(C)NC)C3)c2)CCC2CCC(C(=O)NC(c3ccccc3)c3ccccc3)N2C1=O	Criterion not met

viability, T/C strictly < 70% for this compound? NC1CCC(NC2CC2c2ccccc2)CC1 (stereo not drawn) + CNC(C)C(=O)NC1CN(S(=O)(=O)c2cccc(S(=O)(=O)N3CCC4CCC(C(=O)NC(c5ccccc5)c5ccccc5)N4C(=O)C(NC(=O)C(C)NC)C3)c2)CCC2CCC(C(=O)NC(c3ccccc3)c3ccccc3)N2C1=O Criterion not met

Moving on to the next compound: CCN1CCN(Cc2ccc(Nc3ncc(F)c(-c4cc(F)c5nc(C)n(C(C)C)c5c4)n3)nc2)CC1 + CNC(C)C(=O)NC1CN(S(=O)(=O)c2cccc(S(=O)(=O)N3CCC4CCC(C(=O)NC(c5ccccc5)c5ccccc5)N4C(=O)C(NC(=O)C(C)NC)C3)c2)CCC2CCC(C(=O)NC(c3ccccc3)c3ccccc3)N2C1=O Criterion not met

Moving on to the next compound: CNC(C)C(=O)NC1CN(S(=O)(=O)c2cccc(S(=O)(=O)N3CCC4CCC(C(=O)NC(c5ccccc5)c5ccccc5)N4C(=O)C(NC(=O)C(C)NC)C3)c2)CCC2CCC(C(=O)NC(c3ccccc3)c3ccccc3)N2C1=O (stereo not drawn) + Cc1c(S(C)(=O)=O)c(-c2cc(F)cc(N3CCN(c4ccc(NS(=O)(=O)c5ccc(NC(CCN6CCC(C(=O)OCCCP(=O)(O)O)CC6)CSc6ccccc6)c(S(=O)(=O)C(F)(F)F)c5)cc4)CC3)c2)c(-c2ccc(Cl)cc2)n1C(C)C Criterion not met

###

- Test system: 616215-338-R-J1-PDC complex spheroid growth, % test/control
- protocol summary: Anticancer human tumor 616215-338-R-J1-PDC cell line growth inhibition [Asc];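 note: spheroids exposed to agents for seven days before readout; 100% = DMSO vehicle control viability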
- reported conditions: second compound 1 µM; first compound 3 µM; stronger effect = lower value
endpoint name: viability, T/C

Consider the compound Cc1nc(N2CCC3(CC2)COC(C)C3N)c(CO)nc1Sc1ccnc(N)c1Cl (stereo unspecified) + Cc1c(S(C)(=O)=O)c(-c2cc(F)cc(N3CCN(c4ccc(NS(=O)(=O)c5ccc(NC(CCN6CCC(C(=O)OCCCP(=O)(O)O)CC6)CSc6ccccc6)c(S(=O)(=O)C(F)(F)F)c5)cc4)CC3)c2)c(-c2ccc(Cl)cc2)n1C(C)C and give its measured viability, T/C. 55.6%

###

- System: 616215-338-R-J1-PDC complex spheroid growth, % test/control
- protocol summary: Anticancer human tumor 616215-338-R-J1-PDC cell line growth inhibition [Asc];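 note: spheroids exposed to agents for seven days before readout; 100% = DMSO vehicle control viability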
- reported conditions: second compound 0.1 µM; first compound 0.00316 µM; stronger effect = lower value
Record form. Attribute: viability, T/C. Fill in for each entry.

Consider the following illustrative entries.
CCN1CCN(Cc2ccc(Nc3ncc(F)c(-c4cc(F)c5nc(C)n(C(C)C)c5c4)n3)nc2)CC1 + Cc1c(S(C)(=O)=O)c(-c2cc(F)cc(N3CCN(c4ccc(NS(=O)(=O)c5ccc(NC(CCN6CCC(C(=O)OCCCP(=O)(O)O)CC6)CSc6ccccc6)c(S(=O)(=O)C(F)(F)F)c5)cc4)CC3)c2)c(-c2ccc(Cl)cc2)n1C(C)C	92.5%
Cn1ncnc1[C@H]1c2n[nH]c(=O)c3cc(F)cc(c23)N[C@@H]1c1ccc(F)cc1 + Cc1c(S(C)(=O)=O)c(-c2cc(F)cc(N3CCN(c4ccc(NS(=O)(=O)c5ccc(NC(CCN6CCC(C(=O)OCCCP(=O)(O)O)CC6)CSc6ccccc6)c(S(=O)(=O)C(F)(F)F)c5)cc4)CC3)c2)c(-c2ccc(Cl)cc2)n1C(C)C	85.2%

For every item below, please supply its viability, T/C.
1. CCN1CCN(Cc2ccc(Nc3ncc(F)c(-c4cc(F)c5nc(C)n(C(C)C)c5c4)n3)nc2)CC1 + CNC(C)C(=O)NC1CN(S(=O)(=O)c2cccc(S(=O)(=O)N3CCC4CCC(C(=O)NC(c5ccccc5)c5ccccc5)N4C(=O)C(NC(=O)C(C)NC)C3)c2)CCC2CCC(C(=O)NC(c3ccccc3)c3ccccc3)N2C1=O
2. NC1CCC(NC2CC2c2ccccc2)CC1 (centres undefined) + CNC(C)C(=O)NC1CN(S(=O)(=O)c2cccc(S(=O)(=O)N3CCC4CCC(C(=O)NC(c5ccccc5)c5ccccc5)N4C(=O)C(NC(=O)C(C)NC)C3)c2)CCC2CCC(C(=O)NC(c3ccccc3)c3ccccc3)N2C1=O

1. 107%
2. 92.2%

###

- Tested on: 616215-338-R-J1-PDC complex spheroid growth, % test/control
- protocol summary: Anticancer human tumor 616215-338-R-J1-PDC cell line growth inhibition [Asc];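 note: spheroids exposed to agents for seven days before readout; 100% = DMSO vehicle control viability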
- reported conditions: second compound 0.1 µM; first compound 0.01 µM; stronger effect = lower value
Record form. Attribute: viability, T/C. Fill in for each entry.
Give bare numbers, in %.

CCN1CCN(Cc2ccc(Nc3ncc(F)c(-c4cc(F)c5nc(C)n(C(C)C)c5c4)n3)nc2)CC1 + CNC(C)C(=O)NC1CN(S(=O)(=O)c2cccc(S(=O)(=O)N3CCC4CCC(C(=O)NC(c5ccccc5)c5ccccc5)N4C(=O)C(NC(=O)C(C)NC)C3)c2)CCC2CCC(C(=O)NC(c3ccccc3)c3ccccc3)N2C1=O	105
Cn1ncnc1[C@H]1c2n[nH]c(=O)c3cc(F)cc(c23)N[C@@H]1c1ccc(F)cc1 + Cc1c(S(C)(=O)=O)c(-c2cc(F)cc(N3CCN(c4ccc(NS(=O)(=O)c5ccc(NC(CCN6CCC(C(=O)OCCCP(=O)(O)O)CC6)CSc6ccccc6)c(S(=O)(=O)C(F)(F)F)c5)cc4)CC3)c2)c(-c2ccc(Cl)cc2)n1C(C)C	90.1

Would you kindly look at the next entry?
Consider the molecule O=C(c1ccc(F)c(F)c1Nc1ccc(I)cc1F)N1CC(O)([C@@H]2CCCCN2)C1 + CNC(C)C(=O)NC1CN(S(=O)(=O)c2cccc(S(=O)(=O)N3CCC4CCC(C(=O)NC(c5ccccc5)c5ccccc5)N4C(=O)C(NC(=O)C(C)NC)C3)c2)CCC2CCC(C(=O)NC(c3ccccc3)c3ccccc3)N2C1=O and give its measured viability, T/C. 99.8

###

- System: 616215-338-R-J1-PDC complex spheroid growth, % test/control
- protocol summary: Anticancer human tumor 616215-338-R-J1-PDC cell line growth inhibition [Asc];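 note: spheroids exposed to agents for seven days before readout; 100% = DMSO vehicle control viability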
- reported conditions: second compound 1 µM; first compound 10 µM; stronger effect = lower value
Record form. Attribute: viability, T/C. Fill in for each entry.
Give bare numbers, in %.

C=CC(=O)N1CCN(c2nc(=O)n(-c3c(C)ccnc3C(C)C)c3nc(-c4c(O)cccc4F)c(F)cc23)C(C)C1 (stereo not drawn) + Cc1c(S(C)(=O)=O)c(-c2cc(F)cc(N3CCN(c4ccc(NS(=O)(=O)c5ccc(NC(CCN6CCC(C(=O)OCCCP(=O)(O)O)CC6)CSc6ccccc6)c(S(=O)(=O)C(F)(F)F)c5)cc4)CC3)c2)c(-c2ccc(Cl)cc2)n1C(C)C	42
O=C(c1cc(Cc2n[nH]c(=O)c3ccccc23)ccc1F)N1CCN(C(=O)C2CC2)CC1 + CNC(C)C(=O)NC1CN(S(=O)(=O)c2cccc(S(=O)(=O)N3CCC4CCC(C(=O)NC(c5ccccc5)c5ccccc5)N4C(=O)C(NC(=O)C(C)NC)C3)c2)CCC2CCC(C(=O)NC(c3ccccc3)c3ccccc3)N2C1=O	80.9

Would you kindly look at the next entry?
Report viability, T/C for O=C(c1cc(Cc2n[nH]c(=O)c3ccccc23)ccc1F)N1CCN(C(=O)C2CC2)CC1 + Cc1c(S(C)(=O)=O)c(-c2cc(F)cc(N3CCN(c4ccc(NS(=O)(=O)c5ccc(NC(CCN6CCC(C(=O)OCCCP(=O)(O)O)CC6)CSc6ccccc6)c(S(=O)(=O)C(F)(F)F)c5)cc4)CC3)c2)c(-c2ccc(Cl)cc2)n1C(C)C tested on 616215-338-R-J1-PDC complex spheroid growth, % test/control. 10.9
